# target-or-system: Relaxin receptor 1 (Homo sapiens) (UniProt Q9HBX9)
# Sequence (Q9HBX9 whole entry, looked up): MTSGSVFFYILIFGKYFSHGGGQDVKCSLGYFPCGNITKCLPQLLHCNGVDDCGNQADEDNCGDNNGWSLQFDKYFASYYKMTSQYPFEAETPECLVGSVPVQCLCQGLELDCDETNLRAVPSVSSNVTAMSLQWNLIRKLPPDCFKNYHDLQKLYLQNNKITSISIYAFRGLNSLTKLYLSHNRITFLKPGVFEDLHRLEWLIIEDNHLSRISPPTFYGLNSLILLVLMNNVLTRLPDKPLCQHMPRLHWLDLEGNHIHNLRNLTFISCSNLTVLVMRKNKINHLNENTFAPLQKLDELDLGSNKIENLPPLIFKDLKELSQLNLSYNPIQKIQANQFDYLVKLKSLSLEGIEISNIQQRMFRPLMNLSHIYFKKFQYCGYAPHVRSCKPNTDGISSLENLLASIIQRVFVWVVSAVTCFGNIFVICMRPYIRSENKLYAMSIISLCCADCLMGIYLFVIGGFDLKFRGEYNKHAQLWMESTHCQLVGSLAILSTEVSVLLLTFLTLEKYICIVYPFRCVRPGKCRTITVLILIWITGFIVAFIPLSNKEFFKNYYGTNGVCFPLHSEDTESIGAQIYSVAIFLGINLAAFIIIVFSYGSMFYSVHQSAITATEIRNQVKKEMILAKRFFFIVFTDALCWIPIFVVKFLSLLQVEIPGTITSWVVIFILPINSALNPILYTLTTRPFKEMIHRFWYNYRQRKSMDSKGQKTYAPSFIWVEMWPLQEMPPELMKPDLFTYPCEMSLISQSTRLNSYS
# assay-notes: qHTS Assay for Agonists of the Relaxin Receptor RXFP1: THP1 Hit Validation; note: nearly all actives have a fitted effect of over 60% in size;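 for activation: 0% = buffer alone basal and 100% = 29 nM porcine relaxin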
# protocol-conditions: THP1-RXFP1 cells, cAMP TR-FRET, 30 min; series mostly up to 115 µM
Inconclusive results are not listed. The source made the active and inactive calls. Calls come from the whole dose curve; as a rule, active = well fitted activation curve with a large enough effect; inconclusive = small, poorly fitted or top-dose-only effect; inactive = no such curve, though single readings can be large or run the other way.
API: response.call in true (active), false (inactive)

{"columns": ["compound", "label-value"],
 "data": [
  ["N#Cc1c(N)nc(SCC(=O)C23CC4CC(CC(C4)C2)C3)c(C#N)c1-c1ccc(Cl)cc1", "true"],
  ["COC(=O)c1sc(N2C(=O)C(O)=C(C(=O)c3ccc(C)o3)C2c2ccc(F)cc2)nc1C (stereo not given)", "true"],
  ["O=C(Nc1ccccc1C(=O)NCc1ccc(Cl)cc1)c1ccco1", "false"],
  ["O=C(O)c1ccc(N=C2NC(=O)C(CO)(CO)S2)cc1", "false"],
  ["c1ccc(-c2nnc(-c3ccccn3)c(-c3ccccn3)n2)nc1", "false"],
  ["CCOc1ccc2cc(C#N)c(SCC(=O)NC(C)CC)nc2c1 (stereo not given)", "true"]
]}

Hi, sorry to bother you, what did the test record for O=c1oc2cc(O)c(Cl)cc2c2ccccc12 ?
true

Hi, sorry to bother you, what did the test record for COc1ccc(/C=C2/SC(=O)N(CC(=O)Nc3cc(C)on3)C2=O)cc1OC ?
false

Hi, sorry to bother you, what did the test record for Cc1cc(C)c(C(=O)CSc2n[nH]c(=O)n2C2CC2)cc1C ?
false

Hi, sorry to bother you, what did the test record for c1ccc(COn2nnc3ccccc32)c(COn2nnc3ccccc32)c1 ?
false

Hi, sorry to bother you, what did the test record for O=S(=O)(c1cccc(-c2cn3cccnc3n2)c1)N1CCOCC1 ?
true

Hi, sorry to bother you, what did the test record for Cc1cc(C)n2nc(C(=O)Nc3ccc4c(c3)OCCO4)nc2n1 ?
true

* * *

# target-or-system: Relaxin receptor 1 (Homo sapiens) (UniProt Q9HBX9)
# assay-notes: qHTS Assay for Agonists of the Relaxin Receptor RXFP1: THP1 Hit Validation; note: nearly all actives have a fitted effect of over 60% in size;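 for activation: 0% = buffer alone basal and 100% = 29 nM porcine relaxin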
# protocol-conditions: THP1-RXFP1 cells, cAMP TR-FRET, 30 min; series mostly up to 115 µM
Records with an inconclusive call do not appear. The source made the active and inactive calls. Calls come from the whole dose curve; as a rule, active = well fitted activation curve with a large enough effect; inconclusive = small, poorly fitted or top-dose-only effect; inactive = no such curve, though single readings can be large or run the other way.
API: response.call in 1 (yes) (active), 0 (no) (inactive)

Worked examples follow.
{"columns": ["compound", "target-or-system", "label-value"],
 "data": [
  ["Cc1ccccc1OCC(=O)Nc1sc(C(=O)Nc2cccc(C)c2C)c(C)c1C#N", "Relaxin receptor 1 (Homo sapiens) (UniProt Q9HBX9)", "1 (yes)"],
  ["CCC(Sc1ccc2nnc(-c3cccnc3)n2n1)C(=O)OC (centres undefined)", "Relaxin receptor 1 (Homo sapiens) (UniProt Q9HBX9)", "1 (yes)"],
  ["Cc1ccc(CN(C)C(=O)c2ccc3c(c2)NC(=O)CS3)o1", "Relaxin receptor 1 (Homo sapiens) (UniProt Q9HBX9)", "0 (no)"],
  ["Cc1ccc2[nH]c3c(=S)nc[nH]c3c2c1", "Relaxin receptor 1 (Homo sapiens) (UniProt Q9HBX9)", "1 (yes)"],
  ["O=C(O)CSc1ccnc2cc(Cl)ccc12", "Relaxin receptor 1 (Homo sapiens) (UniProt Q9HBX9)", "1 (yes)"],
  ["CN(C)c1ccc(C(=S)N2CCN(S(=O)(=O)c3ccccc3)CC2)cc1", "Relaxin receptor 1 (Homo sapiens) (UniProt Q9HBX9)", "0 (no)"]
]}

Hi, sorry to bother you, what did the test record for Cc1cccc(C(=O)Nc2ccccc2C(=O)NCc2ccco2)c1 ?
0 (no)

Hi, sorry to bother you, what did the test record for COc1ccc(CN2C(=O)c3cccnc3C2=O)cc1S(=O)(=O)NC1CCCCC1C (centres undefined) ?
1 (yes)

Hi, sorry to bother you, what did the test record for CCOC(=O)c1sc(NC(=O)CCc2ccc(OC)cc2)nc1C ?
1 (yes)

Hi, sorry to bother you, what did the test record for NC(=O)c1ccccc1NC(=O)CC12CC3CC(CC(C3)C1)C2 ?
0 (no)

Hi, sorry to bother you, what did the test record for Brc1ccc(-c2nn3c(-c4ccco4)nnc3s2)o1 ?
1 (yes)

Hi, sorry to bother you, what did the test record for O=C(Nc1ccccc1)c1ccccc1NC(=O)C1CCCCC1 ?
0 (no)

Hi, sorry to bother you, what did the test record for O=C(Nc1ccccc1C(=O)NCc1ccco1)c1ccccc1 ?
0 (no)

Hi, sorry to bother you, what did the test record for Cc1cccc(N2C(=O)C(O)=C(C(=O)c3cccs3)C2c2ccc(C(C)C)cc2)n1 (centres undefined) ?
0 (no)

Hi, sorry to bother you, what did the test record for CC(C)(C)C(=O)Nc1ccccc1C(=O)NCc1ccco1 ?
0 (no)

Hi, sorry to bother you, what did the test record for CCCC(=O)Nc1ncnc2c1ncn2[C@@H]1O[C@@H]2COP(=O)(O)O[C@H]2[C@H]1OC(=O)CCC ?
1 (yes)
